Origin of measurements: patent US12187722B2

- target under test: TEAD2 (Homo sapiens (Human), UniProt Q15562)
- Sequence (Q15562 whole entry): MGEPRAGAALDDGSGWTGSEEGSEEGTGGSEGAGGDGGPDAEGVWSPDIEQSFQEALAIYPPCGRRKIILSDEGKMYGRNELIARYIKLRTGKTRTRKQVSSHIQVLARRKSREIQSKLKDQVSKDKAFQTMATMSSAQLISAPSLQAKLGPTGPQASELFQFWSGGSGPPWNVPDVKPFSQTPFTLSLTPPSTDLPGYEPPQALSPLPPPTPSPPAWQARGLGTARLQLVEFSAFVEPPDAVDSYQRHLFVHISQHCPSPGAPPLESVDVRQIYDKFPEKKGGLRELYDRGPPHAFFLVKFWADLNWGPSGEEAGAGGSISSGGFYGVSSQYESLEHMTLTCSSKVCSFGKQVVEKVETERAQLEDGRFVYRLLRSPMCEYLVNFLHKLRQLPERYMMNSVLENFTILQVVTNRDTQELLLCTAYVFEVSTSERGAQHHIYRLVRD
- procedure text: In vitro palmitoylation (TEAD2 autopalmitoylation, streptavidin blot)
- Assay type: biochemical
- condition summary: compound at 10 μM; Table 3
- Description: Recombinant GST-TEAD2 or His6TEAD2 (500 ng) protein was pre-incubated with the compounds at indicated concentrations for 15 min. and then incubated with 1 μM of alkyne palmitoyl-5 CoA (Cayman Chemical) for 30 min or 50 mM MES, pH 6.4, followed by Click reaction with biotin-azide as previously described (Zheng, B. et al., J. Am. Chem. Soc., 2013, 135, 7082-7085). […]
Label No if inhibition at 10 µM falls below 60%; label Yes in every other case.

>  <record smiles>
COc1ccc(Nc2ccc(N(C)c3ccc(C(F)(F)F)cc3)cc2)c(C#N)c1

>  <target under test>
TEAD2 (Homo sapiens (Human), UniProt Q15562)

>  <qualitative label>
No

$$$$

Query: Is the recorded value of inhibition at 10 µM equal to or greater than 60% for this compound? COc1ccc(Nc2ccc(Oc3ccc(S(F)(F)(F)(F)F)cc3Cl)nc2)c(C(=O)O)c1
Result: Yes

Query: Is the recorded value of inhibition at 10 µM equal to or greater than 60% for this compound? O=C(Nc1ccc(C2CCCCC2)cc1)c1cccc(Nc2ccccc2C(=O)O)c1
Result: No

Query: Is the recorded value of inhibition at 10 µM equal to or greater than 60% for this compound? COc1ccc(Nc2ccc(N(C)c3ccc(C45CC6CC(CC(C6)C4)C5)cc3)cc2F)c(C(=O)O)c1
Result: Yes

Query: Is the recorded value of inhibition at 10 µM equal to or greater than 60% for this compound? COc1ccc(Nc2ccc(N(C)c3ccccc3OC)cc2)c(C(=O)O)c1
Result: No

Query: Is the recorded value of inhibition at 10 µM equal to or greater than 60% for this compound? O=C(O)c1cccc(Nc2cc(Nc3ccc(C4CCCCC4)cc3Cl)cc(C(F)(F)F)c2)n1
Result: Yes

Query: Is the recorded value of inhibition at 10 µM equal to or greater than 60% for this compound? COCCOc1ccc(Nc2ccc(N(C)c3ccc(C4CCCCC4)cc3)cc2)c(C(=O)O)c1
Result: Yes

Query: Is the recorded value of inhibition at 10 µM equal to or greater than 60% for this compound? COc1ccc(Nc2ccc(Oc3ccc(C45CC6CC(C)(CC(C)(C6)C4)C5)cc3Cl)cc2C)c(C(=O)O)c1
Result: Yes

---

Consider the following compounds; for each one, report its inhibition at 10 µM.
- target under test: TEAD2 (Homo sapiens (Human))
- procedure text: In vitro palmitoylation (TEAD2 autopalmitoylation, streptavidin blot)
- Type: biochemical
- condition summary: compound at 10 μM; Table 3
Numbers only, in %.

>  <compound>
CN(C)CCOc1ccc(Nc2ccc(N(C)c3ccc(C45CC6CC(CC(C6)C4)C5)cc3)cc2)c(C(=O)O)c1 [CP-526]

>  <assay readout>
inhibition at 10 µM

>  <quantitative result>
23

$$$$
>  <compound>
COc1ccc(Nc2ccc(N(C)c3ccc(OCC(F)(F)F)cc3)cc2)c(C(=O)O)c1 [CP-553]

>  <assay readout>
inhibition at 10 µM

>  <quantitative result>
100

$$$$
>  <compound>
COc1ccc(Nc2ccc(N(C)c3ccc(Cl)cc3)cc2)c(C(=O)O)c1 [CP-535]

>  <assay readout>
inhibition at 10 µM

>  <quantitative result>
54

$$$$

Pending compound:
Query: Find the recorded inhibition at 10 µM belonging to CN(c1ccc(Nc2cccc(C(=O)O)n2)cn1)c1ccc(C2CCCCC2)cc1Cl [CP-659] and report it.
Result: 46
